Biological target: Protein cereblon/Tyrosine-protein kinase BTK (Homo sapiens, UniProt Q06187+Q96SW2)
Sequence (Q06187 whole entry): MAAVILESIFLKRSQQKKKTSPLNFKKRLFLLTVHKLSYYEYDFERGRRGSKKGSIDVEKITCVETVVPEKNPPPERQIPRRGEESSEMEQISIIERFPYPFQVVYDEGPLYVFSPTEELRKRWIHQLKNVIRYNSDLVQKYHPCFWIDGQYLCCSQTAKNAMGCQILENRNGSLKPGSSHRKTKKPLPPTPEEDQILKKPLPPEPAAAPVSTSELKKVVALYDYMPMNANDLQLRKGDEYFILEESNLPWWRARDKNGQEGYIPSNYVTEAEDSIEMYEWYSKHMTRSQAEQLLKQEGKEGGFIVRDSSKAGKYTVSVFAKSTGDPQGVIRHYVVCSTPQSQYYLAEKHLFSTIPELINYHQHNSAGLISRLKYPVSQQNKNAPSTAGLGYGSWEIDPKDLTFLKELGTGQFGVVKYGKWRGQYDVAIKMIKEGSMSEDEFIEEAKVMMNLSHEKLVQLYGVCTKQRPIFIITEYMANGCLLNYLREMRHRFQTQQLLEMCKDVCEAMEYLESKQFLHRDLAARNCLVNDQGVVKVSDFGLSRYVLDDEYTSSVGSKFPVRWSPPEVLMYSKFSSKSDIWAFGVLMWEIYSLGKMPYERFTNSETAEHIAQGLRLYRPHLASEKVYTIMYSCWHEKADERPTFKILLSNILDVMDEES
Sequence (Q96SW2 whole entry): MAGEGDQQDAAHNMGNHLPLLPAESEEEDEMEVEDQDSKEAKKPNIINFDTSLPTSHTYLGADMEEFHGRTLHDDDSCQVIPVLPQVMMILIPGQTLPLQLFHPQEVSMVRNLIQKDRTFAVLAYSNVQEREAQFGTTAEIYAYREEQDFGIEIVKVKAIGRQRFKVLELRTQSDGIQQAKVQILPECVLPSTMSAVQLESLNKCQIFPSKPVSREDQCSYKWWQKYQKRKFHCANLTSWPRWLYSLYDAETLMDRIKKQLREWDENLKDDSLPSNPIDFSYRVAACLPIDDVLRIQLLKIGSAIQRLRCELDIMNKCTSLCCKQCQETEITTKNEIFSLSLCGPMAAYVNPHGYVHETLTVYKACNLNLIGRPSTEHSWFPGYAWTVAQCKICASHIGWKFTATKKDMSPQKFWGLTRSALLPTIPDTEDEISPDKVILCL
Experiment: Protac activity at E3 ubiquitin ligase/BTK in human Ramos cells assessed as induction of BTK degradation measured after 16 hrs by ELISA
Assay type: cell-based
# DC50 annotations
MEASURE_NAME: DC50 (nM)

[[record]]
molecule = "CN(CCC(=O)N1CCC([C@@H]2CCNc3c(C(N)=O)c(-c4ccc(Oc5ccccc5)cc4)nn32)CC1)CC1CCN(c2ccc3c(c2)C(=O)N(C2CCC(=O)NC2=O)C3=O)CC1 (some centres not stated)"
target_or_test_system = "Protein cereblon/Tyrosine-protein kinase BTK (Homo sapiens, UniProt Q06187+Q96SW2)"
unit_info = "nM"
readout_value = 35

[[record]]
molecule = "NC(=O)c1c(-c2ccc(Oc3ccccc3)cc2)nn2c1NCC[C@H]2C1CCN(C(=O)c2cn(CCOCCOCCOCCOCCOCCOCCNc3cccc4c3C(=O)N(C3CCC(=O)NC3=O)C4=O)nn2)CC1 (some centres not stated)"
target_or_test_system = "Protein cereblon/Tyrosine-protein kinase BTK (Homo sapiens, UniProt Q06187+Q96SW2)"
unit_info = "nM"
readout_value = 107

[[record]]
molecule = "NC(=O)c1c(-c2ccc(Oc3ccccc3)cc2)nn2c1NCC[C@H]2C1CCN(C(=O)c2cn(CCOCCOCCOCCOCCNc3cccc4c3C(=O)N(C3CCC(=O)NC3=O)C4=O)nn2)CC1 (some centres not stated)"
target_or_test_system = "Protein cereblon/Tyrosine-protein kinase BTK (Homo sapiens, UniProt Q06187+Q96SW2)"
unit_info = "nM"
readout_value = 68

[[record]]
molecule = "NC(=O)c1c(-c2ccc(Oc3ccccc3)cc2)nn2c1NCC[C@H]2C1CCN(C(=O)CCC2CCC(N3CCN(c4ccc5c(c4)C(=O)N(C4CCC(=O)NC4=O)C5=O)CC3)CC2)CC1 (some centres not stated)"
target_or_test_system = "Protein cereblon/Tyrosine-protein kinase BTK (Homo sapiens, UniProt Q06187+Q96SW2)"
unit_info = "nM"
readout_value = 17

[[record]]
molecule = "NC(=O)c1c(-c2ccc(Oc3ccccc3)cc2)nn2c1NCC[C@H]2C1CCN(C(=O)c2cn(CCOCCOCCOCCOCCOCCNc3cccc4c3C(=O)N(C3CCC(=O)NC3=O)C4=O)nn2)CC1 (some centres not stated)"
target_or_test_system = "Protein cereblon/Tyrosine-protein kinase BTK (Homo sapiens, UniProt Q06187+Q96SW2)"
unit_info = "nM"
readout_value = 78

[[record]]
molecule = "NC(=O)c1c(-c2ccc(Oc3ccccc3)cc2)nn2c1NCC[C@H]2C1CCN(C(=O)c2cn(CCOCCOCCOCCOCCOCCNc3ccc4c(c3)C(=O)N(C3CCC(=O)NC3=O)C4=O)nn2)CC1 (some centres not stated)"
target_or_test_system = "Protein cereblon/Tyrosine-protein kinase BTK (Homo sapiens, UniProt Q06187+Q96SW2)"
unit_info = "nM"
readout_value = 78

[[record]]
molecule = "NC(=O)c1c(-c2ccc(Oc3ccccc3)cc2)nn2c1NCC[C@H]2C1CCN(C(=O)CCN2CCN(C(=O)CNc3ccc4c(c3)C(=O)N(C3CCC(=O)NC3=O)C4=O)CC2)CC1 (some centres not stated)"
target_or_test_system = "Protein cereblon/Tyrosine-protein kinase BTK (Homo sapiens, UniProt Q06187+Q96SW2)"
unit_info = "nM"
readout_value = 2.9

